IC50 values for the compounds below.
target: recombinant human KLK5 (Homo sapiens, UniProt Q9Y337); test: Kallikrein (KLK) 5 enzymatic assay (Boc-VPR-AMC fluorogenic substrate); settings: recombinant human KLK5 0.1 μg/well, Boc-VPR-AMC 100 μM, pH 7.5, room temperature, 1% DMSO; tested a minimum of three times

// worked examples, IC50 included
N=C(N)c1cccc(-c2ccc3nn(C4CCCC4)c(COc4ccccc4CC(=O)O)c3c2)c1 [Compound 22c] : < 1 µM
Nc1nccc2c(-c3ccc4c(c3)c(COc3ccccc3CC(=O)O)nn4C3CCN(CCO)C3)cccc12 (stereo not shown) [Compound 298c] : < 1 µM
COc1ccc(CC(=O)O)c(OCc2c3cc(-c4cccc5c(N)nccc45)ccc3nn2C2CCC2)c1 [Compound 19c] : 1 to 10 µM
Cc1cccc(O[C@@H]2CCc3ccc(-c4ccc5ccnc(N)c5c4)cc32)c1CC(=O)O [Compound 260b] : < 1 µM
CC(C)(C)OC(=O)N1CCC2(CC1)C[C@@H](Oc1ccccc1CC(=O)O)c1cc(-c3cccc4c(N)nccc34)ccc12 [Compound 394e] : < 1 µM

Assay recombinant human KLK5 (Homo sapiens, UniProt Q9Y337), sample Nc1nccc2c(-c3ccc4c(c3)[C@@H](Oc3ccccc3CC(=O)O)C[C@@H]4N3CCCCC3)cccc12 [Compound 459g] , IC50 read: 1 to 10 µM

Let me check: Nc1nccc2ccc(-c3ccc4c(c3)C(Oc3ccccc3CC(=O)O)c3ccccc3-4)cc12 (stereo not shown) [Compound 209e] , system recombinant human KLK5 (Homo sapiens, UniProt Q9Y337), measured IC50 is < 1 µM

---

Target: recombinant human KLK5 (Homo sapiens, UniProt Q9Y337)
Sequence (Q9Y337 23-293): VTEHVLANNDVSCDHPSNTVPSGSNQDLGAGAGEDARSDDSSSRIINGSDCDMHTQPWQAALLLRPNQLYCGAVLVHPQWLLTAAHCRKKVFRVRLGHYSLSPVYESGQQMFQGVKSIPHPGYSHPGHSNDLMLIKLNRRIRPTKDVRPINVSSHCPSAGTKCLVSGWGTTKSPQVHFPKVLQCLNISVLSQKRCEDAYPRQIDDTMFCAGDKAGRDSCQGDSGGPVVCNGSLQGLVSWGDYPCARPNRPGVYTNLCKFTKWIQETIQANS
Assay: Kallikrein (KLK) 5 enzymatic assay (Boc-VPR-AMC fluorogenic substrate)
Conditions: recombinant human KLK5 0.1 μg/well, Boc-VPR-AMC 100 μM, pH 7.5, room temperature, 1% DMSO; tested a minimum of three times
Method: […] The reaction rate for enzyme alone was compared to the reaction rate of enzyme in the presence of compound and the percent inhibition was calculated as shown below: […]
pIC50: −log10 of the molar value.
endpoint.label: pIC50

Completed entries (count: 8):
Cc1cccc(OCc2nn(C3CCC3)c3ccc(-c4cccc5c(N)nccc45)cc23)c1CC(=O)O [Compound 162b] : > 6.00
Nc1nccc2c(-c3ccc4nn(C5CCC5)c(COc5cc(F)ccc5CC(=O)O)c4c3)cccc12 [Compound 150b] : > 6.00
Nc1nccc2c(-c3ccc4c(c3)[C@H](Oc3cccc(OC(F)(F)F)c3CC(=O)O)CC4)cccc12 [Compound 435b] : > 6.00
COc1ccc(CC(=O)O)c(OCc2nn(C3CCC3)c3ccc(-c4cccc5c(N)nccc45)cc23)c1 [Compound 169c] : > 6.00
CC(C)n1nc(COc2ccccc2CC(=O)O)c2cc(-c3ccn4ncc(N)c4n3)ccc21 [Compound 33c] : < 5.00
Nc1nccc2c(-c3cc(Cl)c4c(c3)C(Oc3ccccc3CC(=O)O)CC4)cccc12 (stereo not drawn) [Compound 258a] : > 6.00
CCCn1nc(COc2ccccc2CC(=O)O)c2cc(-c3ccc4ccnc(N)c4c3)ccc21 [Compound 186e] : > 6.00
CCN1CCC2(CC1)C[C@@H](Oc1ccccc1CC(=O)O)c1cc(-c3cccc4c(N)nccc34)ccc12 [Compound 418c] : > 6.00

The recorded pIC50 for CC(C)n1nc(COc2ccccc2CC(=O)O)c2cc(-c3ccc4c(N)nccc4c3)ccc21 [Compound 99c] is 5.00 to 6.00

pIC50 recorded for this compound, COc1cnc(N)c2cc(-c3ccc4c(c3)c(COc3ccccc3CC(=O)O)nn4C(C)C)ccc12 [Compound 74d] , is 5.00 to 6.00

---

molecular target: recombinant human KLK5 (Homo sapiens, UniProt Q9Y337); assay: Kallikrein (KLK) 5 enzymatic assay (Boc-VPR-AMC fluorogenic substrate); conditions: recombinant human KLK5 0.1 μg/well, Boc-VPR-AMC 100 μM, pH 7.5, room temperature, 1% DMSO; tested a minimum of three times
Measured IC50 by item

Examples with answers:
CC(C)n1nc(COc2ccccc2CC(=O)O)c2cc(-c3cccc4cnc(N)cc34)ccc21 [Compound 56c] : > 10 µM
COc1cc2nn(C3CCC3)c(COc3ccccc3CC(=O)O)c2cc1-c1cccc2c(N)nccc12 [Compound 270b] : > 10 µM
COc1ccc(CC(=O)O)c(OC2c3cc(-c4cccc5c(N)nccc45)ccc3CC2(C)C)c1 (centres unmarked) [Compound 440c] : < 1 µM
CC(C)n1nc(COc2ccccc2CC(=O)O)c2cc(-c3cccc4c(N)n[nH]c34)ccc21 [Compound 31c] : 1 to 10 µM
Nc1nccc2c(-c3ccc4c(c3)c(COc3ccccc3CC(=O)O)nn4C3CCNC3)cccc12 (centres unmarked) [Compound 90a] : < 1 µM
Nc1nccc2c(-c3ccc4c(c3)[C@H](Oc3cc(C(F)(F)F)ccc3CC(=O)O)CC4)cccc12 [Compound 428b] : < 1 µM

The recorded IC50 for entry CCS(=O)(=O)N1CC(n2nc3ccc(-c4ccc5ccnc(N)c5c4)cc3c2COc2ccccc2CC(=O)O)C1 [Compound 133b] equals > 10 µM

Notebook: Nc1nccc2c(-c3ccc4c(c3)c(COc3cccc(C5CC5)c3CC(=O)O)nn4C3CCOC3)cccc12 (centres unmarked) [Compound 291b] , IC50 read as < 1 µM

IC50 in this record for COc1c(-c2ccc3c(c2)c(COc2ccccc2CC(=O)O)nn3C(C)C)ccnc1C(=N)N [Compound 81d] : < 1 µM

Briefly, IC50 measured for Nc1nccc2c(-c3ccc4c(c3)c(COc3ccccc3CC(=O)O)nn4CC3CNC3)cccc12 [Compound 296b] : < 1 µM

Per the record, COc1ccc(CC(=O)O)c(OCc2coc3c(OC)cc(-c4ccc5ccnc(N)c5c4)cc23)c1 [Compound 234c] has IC50 of > 10 µM

Sample CCC(=O)N1CCC2(CC1)CC(Oc1ccccc1CC(=O)O)c1cc(-c3cccc4c(N)nccc34)ccc12 (single isomer, unassigned; (+)) [Compound 385d] ; IC50 observed: < 1 µM

Value of IC50 reported for the compound NCc1cc(-c2cccc3c(N)nccc23)cc2c(COc3ccccc3CC(=O)O)nn(C3CCCCO3)c12 (centres unmarked) [Compound 287a] is 1 to 10 µM

Entry CC(C)(C)OC(=O)N1CCC2(CC1)CC(Oc1ccccc1CC(=O)O)c1cc(-c3ccc4ccnc(N)c4c3)ccc12 (centres unmarked) [Compound 348b] ; IC50 = < 1 µM

The reported value for COC(=O)N1CCC2(CC1)C[C@@H](Oc1ccccc1CC(=O)O)c1cc(-c3ccc4ccnc(N)c4c3)ccc12 [Compound 399b] in terms of IC50 is < 1 µM

Item: CC(C)CCN1CC(n2nc(COc3ccccc3CC(=O)O)c3cc(-c4ccc5ccnc(N)c5c4)ccc32)C1 [Compound 146b] | IC50: < 1 µM

What the record says about CC(C)COC(=O)N1CC[C@@H](n2nc(COc3ccccc3CC(=O)O)c3cc(-c4ccc5ccnc(N)c5c4)ccc32)C1 [Compound 364c] : IC50 is < 1 µM

The compound listed as CC(C)OC(=O)N1CCC2(CC1)CC(Oc1ccccc1CC(=O)O)c1cc(-c3ccc4ccnc(N)c4c3)ccc12 (centres unmarked) [Compound 374c] shows IC50 equal to < 1 µM

Reported IC50 for COc1ccc(CC(=O)O)c(OCc2c3cc(-c4ccc5ccnc(N)c5c4)ccc3nn2C2CCOC2)c1 (centres unmarked) [Compound 13c] was 1 to 10 µM

Quick note, IC50 for CC1(C)Cc2ccc(-c3ccc4ccnc(N)c4c3)cc2C1Oc1cc(F)ccc1CC(=O)O (centres unmarked) [Compound 439b] landed at 1 to 10 µM

// IC50 lookup, compound = Cc1ccc(OCc2c3cc(-c4cccc5c(N)nccc45)ccc3nn2C2CCC2)c(CC(=O)O)c1 [Compound 156b] , result: 1 to 10 µM

For record CC(C)(C)OC(=O)N1CCC2(CC1)C[C@H](Oc1ccccc1CC(=O)O)c1cc(-c3cccc4c(N)nccc34)ccc12 [Compound 392f] the listed IC50 is < 1 µM

response.value for COc1ccc(OCc2nn(C3CCC3)c3ccc(-c4cccc5c(N)nccc45)cc23)c(CC(=O)O)c1 [Compound 171b] (field: IC50) = < 1 µM

The compound Nc1nccc2ccc(-c3ccc4c(c3)c(COc3cccc(C5CC5)c3CC(=O)O)nn4C3CCOC3)cc12 (centres unmarked) [Compound 290d] showed IC50 equal to < 1 µM

// IC50 lookup, compound = Nc1nccc2ccc(-c3ccc4c(c3)[C@H](Oc3cc(C(F)(F)F)ccc3CC(=O)O)CC4)cc12 [Compound 427c] , result: < 1 µM

Reported IC50 for Cn1nc(COc2ccccc2CC(=O)O)c2cc(-c3cccc4c(N)nccc34)ccc21 [Compound 58b] was < 1 µM

Record CC(C)(C)OC(=O)N1CC(n2nc(COc3ccccc3CC(=O)O)c3cc(-c4ccc5ccnc(N)c5c4)ccc32)C1 [Compound 10e] . Reported IC50: < 1 µM

The compound listed as Nc1nccc2c(-c3ccc4nn(C5CC(N)C5)c(COc5ccccc5CC(=O)O)c4c3)cccc12 (centres unmarked) [Compound 136b] shows IC50 equal to 1 to 10 µM

IC50 reported for this compound Cn1c(=O)n(Cc2ccccc2CC(=O)O)c2cc(-c3cccc4c(N)nccc34)ccc21 [Compound 218b] : 1 to 10 µM

// data source = patent US20240239752A1
